experiment description: Half life in SPF Sprague-Dawley rat at 10 mg/kg, po by LC-MS/MS analysis
Format: ADME, organism-based
condition info: in vivo
measure name: half-life (h)
Hi! Could you send only the number? It should be in h, unit omitted.

Form: compound = Cc1ncsc1-c1ccc([C@H](C)NC(=O)[C@@H]2C[C@@H](O)CN2C(=O)[C@@H](NC(=O)C2(c3ccc(-c4cc(-c5ccccc5O)nnc4N)cc3)CC2)C(C)(C)C)cc1 ; half-life = 2.1

---

experiment description: MRT (0 to t) in SPF Sprague-Dawley rat at 10 mg/kg, po by LC-MS/MS analysis
Assay type: ADME, organism-based
condition info: in vivo
measure name: MRT last (min)
Hi! Could you send only the number? It should be in min, unit omitted.

Form: molecule = Cc1ncsc1-c1ccc([C@H](C)NC(=O)[C@@H]2C[C@@H](O)CN2C(=O)[C@@H](NC(=O)C2(c3ccc(-c4cc(-c5ccccc5O)nnc4N)cc3)CC2)C(C)(C)C)cc1 ; MRT last = 48.6

---

experiment description: Tmax in SPF Sprague-Dawley rat at 1 mg/kg, iv by LC-MS/MS analysis
Assay type: ADME, organism-based
condition info: in vivo
measure name: Tmax
For clarity, give the value followed by its unit.

Form: compound = Cc1ncsc1-c1ccc([C@H](C)NC(=O)[C@@H]2C[C@@H](O)CN2C(=O)[C@@H](NC(=O)C2(c3ccc(-c4cc(-c5ccccc5O)nnc4N)cc3)CC2)C(C)(C)C)cc1 ; Tmax = 1.98 min

---

experiment description: Tmax in SPF Sprague-Dawley rat at 10 mg/kg, po by LC-MS/MS analysis
Assay type: ADME, organism-based
condition info: in vivo
measure name: Tmax
For clarity, give the value followed by its unit.

Form: compound = Cc1ncsc1-c1ccc([C@H](C)NC(=O)[C@@H]2C[C@@H](O)CN2C(=O)[C@@H](NC(=O)C2(c3ccc(-c4cc(-c5ccccc5O)nnc4N)cc3)CC2)C(C)(C)C)cc1 ; Tmax = 25.2 min

---

experiment description: Cmax in SPF Sprague-Dawley rat at 1 mg/kg, iv by LC-MS/MS analysis
Format: ADME, organism-based
condition info: in vivo
measure name: Cmax (ng/mL)
Hi! Could you send only the number? It should be in ng/mL, unit omitted.

Form: compound = Cc1ncsc1-c1ccc([C@H](C)NC(=O)[C@@H]2C[C@@H](O)CN2C(=O)[C@@H](NC(=O)C2(c3ccc(-c4cc(-c5ccccc5O)nnc4N)cc3)CC2)C(C)(C)C)cc1 ; Cmax = 1950

---

experiment description: MRT (0 to t) in SPF Sprague-Dawley rat at 1 mg/kg, iv by LC-MS/MS analysis
Format: ADME, organism-based
condition info: in vivo
measure name: MRT last (min)
Hi! Could you send only the number? It should be in min, unit omitted.

Form: compound = Cc1ncsc1-c1ccc([C@H](C)NC(=O)[C@@H]2C[C@@H](O)CN2C(=O)[C@@H](NC(=O)C2(c3ccc(-c4cc(-c5ccccc5O)nnc4N)cc3)CC2)C(C)(C)C)cc1 ; MRT last = 42

---

Test system: A549
experiment description: cells
condition info: Homo sapiens, A549, 72 h
measure name: pIC50
Here pIC50 is given on a logarithmic scale as minus log10 of the concentration in mol/L.

Form: molecule = Cc1ncsc1-c1ccc([C@H](C)NC(=O)[C@@H]2C[C@@H](O)CN2C(=O)[C@@H](NC(=O)C2(c3ccc(-c4cc(-c5ccccc5O)nnc4N)cc3)CC2)C(C)(C)C)cc1 ; pIC50 = 5.22
